Entries and their growth values follow.
test system: KM12 colon; assay: NCI-60 one-dose screen, 48 h (100 = growth as untreated, 0 = no growth, -100 = all killed); conditions: 10 µM
This is part of a sample that, as a whole, favours compounds with a hit. Of some 83,000 tested, about 20% had one in any assay.
Respond with the bare value in %.

Compound | Result Number
Cc1cnc(C=O)c2cccc([N+](=O)[O-])c12 | 99.2
c1ccc(COCC[P+](c2ccccc2)(c2ccccc2)c2ccccc2)cc1 | 6.34
Cc1ccc(S(=O)(=O)N2CCc3ccccc3CC2)cc1 | 94.3
N=C(N)c1ccc(-c2ccc(-c3ccccc3)s2)cc1F | -86.1

Data request: Query growth on KM12 colon for CN(C)Cc1cccs1
Data returned: 101

Data request: Query growth on KM12 colon for CCN1CCOC1C(C)C (configuration not stated)
Data returned: 109

Data request: Query growth on KM12 colon for CC(=O)c1ccc(NCn2nc(-c3ccc(Cl)cc3)oc2=S)cc1
Data returned: 93.1
